- Tested on: AsPC-1 cells
- assay_notes: AsPC-1 CTG proliferation assay (120 h) (pancreatic cancer, G12D)
- Format: cell-based
- measurement_parameters: Homo sapiens, ASPC1
I'd be grateful if you could share measured pIC50 for these entries.
pIC50 is defined as minus the log10 of a concentration measured in mol/L.

Q: Item C[C@H](Oc1cc(N2CC[C@H](N(C)C)C2)nc(-c2noc3c2CCC[C@@]32CCCc3sc(N)c(C#N)c32)n1)[C@@H]1CCCN1C [II-49] : provide pIC50
Ans: 6.29

Q: Given C[C@H](Oc1cc(-c2ccccn2)nc(-c2noc3c2CCC[C@@]32CCCc3sc(N)c(C#N)c32)n1)[C@@H]1CCCN1C [II-85] , respond with its pIC50.
Ans: 5.89

Q: For the compound C[C@H](Oc1cc(-n2ccnc2)nc(-c2onc3c2CCC[C@@]32CCCc3sc(N)c(C#N)c32)n1)[C@@H]1CCCN1C [I-20] , report pIC50.
Ans: 5.27

Q: Retrieve pIC50 measured for C[C@H](Oc1cc(-n2cc3ccn([C@H]4CCOC4)c(=O)c3n2)nc(-c2noc3c2CCC[C@@]32CCCc3sc(N)c(C#N)c32)n1)[C@@H]1CCCN1C [II-202] and print it.
Ans: 6.42

Q: Identify measured pIC50 corresponding to CC(C)N1CCCN(c2cc(-n3ccnc3)nc(-c3noc4c3CCC[C@@]43CCCc4sc(N)c(C#N)c43)n2)[C@@H](C)C1 [II-169]
Ans: 5.43

Q: Using the record for C[C@H](Oc1cc(-n2ccc(Br)n2)nc(-c2noc3c2CCC[C@@]32CCCc3sc(N)c(C#N)c32)n1)[C@@H]1CCCN1C [II-110] , state its measured pIC50.
Ans: 5.55
